- Tested on: NCI-H460 lung
- ASSAY_REMARKS: NCI tumour cell line growth inhibition, 48 h
Parameter TGI: see the listing below.
MEASURED_ATTRIBUTE: TGI (µM)

COMPOUND	UNITS_OF_MEASURE	INEQUALITY_SYMBOL	REPORTED_VALUE
Cc1cc(N(CCCNc2ccnc3cc(Cl)ccc23)Cc2ccc3c(c2)OCO3)nc(N2CCOCC2)n1	µM	=	14.1
COc1ccc(/C=C2\c3cc(OC)c(OC)cc3CCN2C(=O)c2ccccc2)cc1OC	µM	=	87.6
CC(=O)OCC1OC(OC2CC3C(C)(C)C(O)CC[C@]3(C)C3CCC45CC4(CCC5[C@@H](C)CC(O)C(O)C(C)(C)O)[C@]23C)C(O)C(O)C1O (some centres undefined)	µM	>	10
CCOC(=O)c1c(-c2ccc(OC)cc2)c(C#N)c2c(C#N)c(N)nn2c1N	µM	=	30.9

----------
- Test system: A498 renal
- ASSAY_REMARKS: NCI tumour cell line growth inhibition, 48 h; in the data active = GI50 below about 0.43 µM; inactive = the rest
Labels: active, inactive

> print(dat)
                                   compound  measured.on  answer.label
1            CSc1ccccc1C#C/C=C\C#Cc1ccccc1N   A498 renal      inactive
2  COc1ccc(-c2nsc3c2NC(=O)CC3c2cccc(OC)c2)cc1 (stereo not given)   A498 renal        active
3  NCCCn1c2c(c3ccc([N+](=O)[O-])cc3c1=O)C(=O)c1ccccc1-2   A498 renal        active
4  CS(=O)(=O)Nc1cc(-c2ccc3ncnc(Nc4c(Cl)ccc5c4OCO5)c3c2)cnc1Cl   A498 renal        active
5  CC1CCN(C(=O)OCc2nc3nc(Cl)nc(N4CCOCC4)c3[nH]2)CC1   A498 renal      inactive

----------
- Tested on: HS 578T breast
- ASSAY_REMARKS: NCI tumour cell line growth inhibition, 48 h; in the data active = GI50 below about 0.43 µM; inactive = the rest
Possible outcomes: 1 (yes) = active, 0 (no) = inactive

COMPOUND	ANSWER_LABEL
CCOC(=O)c1c(-c2ccc(OC)cc2)c(C#N)c2c(C#N)c(N)nn2c1N	0 (no)
CC(C)=CCc1cc(O)cc2c1OC(C=C(C)C)C1=C2C(=O)C2=C(C1=O)S(=O)(=O)CCN2 (stereo not given)	0 (no)
COc1cccc2c1C(=O)c1c(O)c3c(c(O)c1C2=O)C[C@@](O)(/C(C)=N/NC(=O)c1ccc(Cl)cc1)C[C@@H]3OC1CC(N)C(O)C(C)O1 (stereo not given in full)	1 (yes)
CCc1ccc(/C=C/c2ccc(O)c3ncccc23)[n+](C)c1	0 (no)
COc1cc(/C=C/C(=O)c2cccc(-n3cc(-c4ccc(Cl)cc4)[nH]c3=O)c2)ccc1O	0 (no)
BrCc1cccc(C[P+](c2ccccc2)(c2ccccc2)c2ccccc2)c1	0 (no)
Clc1nc(Cl)nc(Nc2cccc3ccccc23)n1	0 (no)
CS(=O)(=O)Nc1cc(-c2ccc3ncnc(Nc4c(Cl)ccc5c4OCO5)c3c2)cnc1Cl	1 (yes)
Cn1c(Nc2ccc(C(F)(F)F)cc2)nc2cc(Oc3ccnc(-c4ncc(C(F)(F)F)[nH]4)c3)ccc21	1 (yes)
COC(=O)C1=CN(CC2=CC(=O)C(C)=CC2=O)C=C(C(=O)OC)C1c1cccc(OC)c1	0 (no)
Nc1c(C(=O)c2ccccc2)cnn1-c1ccc(F)cc1	0 (no)
O=C1c2cccc3cccc(c23)C(=O)N1CCCCCN1CCN(CCCCCOc2ccc(-c3nc4ccc(N5CCOCC5)cc4[nH]3)cc2)CC1	0 (no)
Cc1nc2cc(Nc3nc(Nc4ccc(F)cc4)nc(-c4cccs4)n3)ccc2n1Cc1ccccc1	0 (no)
CN1CC[C@@H](c2c(O)cc(O)c3c(=O)cc(-c4ccc(C(F)(F)F)cc4Cl)oc23)[C@@H]1CO	0 (no)
C[C@H](Nc1cc(Cl)nc2c1cnn2[C@@H]1O[C@H](COP(=O)(O)CP(=O)(O)O)[C@@H](O)[C@H]1O)c1ccccc1F	0 (no)
